ASSAY_INFO: Dog PK study #3 (Compound A PO once daily 5 days, 5/10/20 mg/kg; PK, body weight, hematology)
Type: in vivo, beagle dogs
TEST_CONDITIONS: male, beagle, dog, plasma, po, 20 mg/kg, Day 1, 20 mg/kg dose PO; individual animals
Description: For the third dog pharmacokinetic study, three solutions of different concentrations of Compound A were prepared in 5% DMSO/15% PEG-400/80% (10% VE-TPGS) as outlined in Table 2E. […] Body weight was recorded prior to dosing, and detailed clinical observations were made prior to dosing and throughout the study, as needed. […] The concentration of Compound A in the blood plasma was determined through LC-MS as previously described. […] The cell composition (hematology) of blood samples was analyzed at day 5. […]
METRIC_NAME: Tmax (h)

> print(dat)
                                   compound  numeric.readout
1  Cn1cc(-c2ccccc2)c(-c2cn(C)c(=O)c3[nH]c(-c4cnn(C(F)(F)F)c4)cc23)cc1=O [Compound A]                4

====

Overview of reported pIC50 across a group of compounds:
TARGET_OR_TEST_SYSTEM: BRD4 BD2 (Homo sapiens)
Construct: HEK293 cells were transfected using NanoLuc-BRD4-BD1 or NanoLuc-BRD4-BD2 fusion vectors
ASSAY_INFO: NanoBRET bromodomain assay, NanoLuc-BRD4-BD2 in HEK293 cells
pIC50: −log10 of the molar value.
METRIC_NAME: pIC50

> print(dat)
                                 smiles.str    target.or.test.system        result
1  Cc1c(-c2cnn(C(F)(F)F)c2)[nH]c2c(=O)n(C)cc(-c3cc(=O)n(C)cc3-c3ccccc3)c12  BRD4 BD2 (Homo sapiens)  7.30 to 8.00
2  CC(C)c1cc(-c2cc3c(-c4cc(=O)n(C)cc4-c4ccccc4)cn(C)c(=O)c3[nH]2)ccc1F  BRD4 BD2 (Homo sapiens)  6.70 to 7.30
3  Cn1cc(-c2cccnc2)c(-c2cn(C)c(=O)c3[nH]c(-c4ccc(F)cc4F)cc23)cc1=O  BRD4 BD2 (Homo sapiens)  7.30 to 8.00
4  CC(C)n1cc(-c2cc3c(-c4cc(=O)n(C)cc4-c4cccc(OCCO)c4)cn(C)c(=O)c3[nH]2)cn1  BRD4 BD2 (Homo sapiens)  6.00 to 6.70
5  Cn1cc(-c2cccc(CN3CCNCC3)c2)c(-c2cn(C)c(=O)c3[nH]c(-c4ccc(F)cc4F)cc23)cc1=O  BRD4 BD2 (Homo sapiens)  6.00 to 6.70
6  COCc1ccc(-c2cc3c(-c4cc(=O)n(C)cc4-c4ccccc4)cn(C)c(=O)c3[nH]2)cc1  BRD4 BD2 (Homo sapiens)        > 8.00
7  Cn1cc(-c2ccccc2)c(-c2cn(C)c(=O)c3[nH]c(-c4cccc(C5COC5)c4)cc23)cc1=O  BRD4 BD2 (Homo sapiens)        > 8.00

====

ASSAY_INFO: Rat PK study #4 (Compound A PO 0.2 and 1.0 mg/kg, propylene glycol formulation)
Assay type: in vivo, Lewis rats
TEST_CONDITIONS: male, Lewis, rat, plasma, po, 0.2 mg/kg, Lewis rats, PO 0.2 mg/kg, propylene glycol-based formulation, 24 h, mean of 3 animals
METRIC_NAME: concentration at 24 h (ng/mL)

> print(dat)
                                 smiles.str  numeric.readout
1  Cn1cc(-c2ccccc2)c(-c2cn(C)c(=O)c3[nH]c(-c4cnn(C(F)(F)F)c4)cc23)cc1=O            0.389

Hey, just so you know, these numbers are from patent US20260217701A1.
